Reported values of Ki for individual entries
# target_entity: thrombin (UniProt P00734;P00734 P00734:328-363,P00734:364-622)
# assay_notes: inhibition; fibrinogen clotting assay

| binder | Ki |
| --- | --- |
| GGTTGGTGTGGTTGG (ssDNA, PS linkages between 13-14 and 14-15) [15-mer with 3' thioates GGTTGGTGTGGTT*G*G] | 40 nM |
| GGTTGGTGTGGTTGG (ssDNA, dU at positions 3 and 12 [n positions 3,12 = modified dU]) [15-mer GG(dU)TGGTGTGG(dU)TGG] | 80 nM |
| GGTTGGTGTGGTTGG (ssDNA, PS at all linkages) [15-mer all thioate] | 280 nM |
| GGTTGGTGTGGTTGG (ssDNA, dU at positions 7 and 9 [n positions 7,9 = modified dU]) [15-mer GGTTGG(dU)G(dU)GGTTGG] | 15 nM |
| GGTTGGTGTGGTTGG (ssDNA, 5-(1-pentynyl)uracil at position 13 [13 = 5-(1-pentynyl)uracil (dU analog written as T)]) [15-mer GGTTGGTGTGGTU'GG] | 20 nM |
| GGTTGGTGTGGTTGGGT (ssDNA, P(O)NH(CH2CH2OCH3) (MEA) linkages between 15-16 and 16-17) [17-mer with 3' MEA linkages GGTTGGTGTGGTTGG#G#T] | 35 nM |
